Data origin: PubChem BioAssay (NCI)

test system: UACC-62 melanoma; test: NCI tumour cell line growth inhibition, 48 h
The following compounds are listed with their measured TGI values.

// query Data request, read-out TGI, for C[N+]1(CCCCN2c3ccccc3Sc3cc(N=[N+]=[N-])ccc32)CCN(C(=O)CCNC(=O)Cc2ccc(C(=O)c3ccccc3)cc2)CC1
// result > 69.2 µM

// query Would you kindly repeat that for COC(=O)[C@@H]1[C@H]2CC[C@]3(C)[C@@H](OC(C)=O)CC[C@H]3[C@@H]2CC[C@H]1C1(C)SCCS1 ?
// result > 100 µM

// query Next entry: O=C(/C(=N/Nc1cn[nH]c(=O)c1Cl)c1ccccc1)c1ccccc1
// result 53.5 µM

// query Please answer likewise for CCOC(=O)c1cc(C(=O)O)c(=O)n2c1[nH]c1ccccc12
// result > 100 µM

// query Another compound to look at: CCCCCc1cc(CCCC)sc1-c1ccco1
// result > 100 µM

// query Could you do the same for CC(=O)N=S(NC(=O)c1ccc(C)cc1)C(Cl)(Cl)Cl (configuration not stated) , please?
// result > 100 µM

More entries:
// query Value lookup for TGI; key = Nc1nc(Cl)cc(NCCCCCCNc2cc(Cl)nc(N)n2)n1
// result 97.8 µM

// query Please answer likewise for CC(=O)OC1COC(N2c3ccccc3[C@@H]3CCc4c([nH]c5ccccc45)[C@@H]32)C(OC(C)=O)C1OC(C)=O (mixture of isomers)
// result > 100 µM

// query Same question for CN(C)CCN1C(=O)N(CCN(C)C)c2c3cc(O)ccc3nc3c([N+](=O)[O-])ccc1c23 please.
// result 30.8 µM

----------
// reported TGI per item
tested on: T-47D breast; assay: NCI tumour cell line growth inhibition, 48 h
Give the value, in units of µM, as a plain number.

// query Recorded TGI for CCOC(=O)/N=c1\ssc(Cl)c1Cl , please?
// result 42.6

// query Please answer likewise for COc1ccc2c(c1)CCC(CN1CCN(CCOC(c3ccccc3)c3ccccc3)CC1)C2O (stereo not given)
// result 47.8

----------
Known GI50 of a selection of compounds
test system: SK-MEL-28 melanoma; assay: NCI tumour cell line growth inhibition, 48 h

Completed entries (count: 3):
// query Hello, I am looking for reported GI50 with SK-MEL-28 melanoma for CCc1ccc(OCc2ccccc2C(=O)Nc2ccc3nc(C)cc(N)c3c2)cc1 . Could you help?
// result 1750 nM

// query Follow-up item: Cc1cc(Nc2cc(N3CCN(C)CC3)nc(C#Cc3ccccc3)n2)n[nH]1
// result 5050 nM

// query Entry CC(=O)OC1Oc2cc(C)c(C)cc2-c2oc(=O)c(-c3ccccc3)cc21 (stereo not given) please
// result 464 nM

Further cases:
// query Please state recorded GI50 (tested on SK-MEL-28 melanoma) of NCCn1c2c(c3ccccc3c1=O)C(=O)c1ccccc1-2
// result 1460 nM

// query Another compound to check: COc1ccc(-c2nn3ncccc3c2-c2ccnc(Nc3cccc(C(F)(F)F)c3)n2)cc1
// result 16700 nM

// query Same question, Cc1ccc(S(=O)c2ccc([N+](=O)[O-])c3nonc23)cc1 (stereo not given) this time
// result 9150 nM

// query What do you get for CC[C@H](C)[C@H](NC(=O)N[C@@H](C)c1ccccc1)C(=O)N(C)[C@H](C[C@@H](OC(C)=O)c1nc(C(=O)N[C@@H](Cc2ccccc2)C[C@H](C)C(=O)OC)cs1)C(C)C ?
// result 47000 nM

// query And for CCOC(=O)/N=c1\ssc(Cl)c1Cl ?
// result 3900 nM

// query Another compound to check: Cc1ccc(NCCNCC(O)CO)c2c(=O)c3ccccc3sc12 (stereo not given)
// result 1690 nM

// query Repeat with COc1ccc(-c2nc(/C=N/Nc3cc(C)nc4ccc(Br)cc34)c(C)o2)cc1
// result 1790 nM
